test: chemical genetic growth profiling, strain panel (AID 1159580);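 note: tested at 20 µM; growth read once vehicle control cultures reached saturation at 30 °C; 1 = growth at the plate median or of vehicle wells; lower values mean less growth of the strain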; settings: S. cerevisiae deletion strains, growth OD, locus YDR195W, strain ref2
Among all 5,500 compounds or so, about 2,000 (36%) were called active. Another 18% or so got no clear call; they are omitted. Cut-off read from the data, not from the text of the source: active = normalized growth mostly below about 0.91 (no sharp cut-off); inconclusive = no clear call, values can overlap the other calls; inactive = mostly above about 0.92. The list shows a part of the results.
Outcomes: true (1) (active), false (0) (inactive)

{"columns": ["molecule", "label"],
 "data": [
  ["NCC(CC(=O)O)c1ccc(Cl)cc1 (centres undefined)", "false (0)"],
  ["C[C@H](N)[C@H](O)c1cccc(O)c1", "false (0)"],
  ["O=C(Nc1ccccc1)Nc1ccccc1", "false (0)"],
  ["COC(=O)CCCOc1ccc(Cl)cc1Cl", "false (0)"],
  ["C=C[C@H]1CN2CC[C@H]1C[C@@H]2[C@H](O)c1ccnc2ccccc12", "false (0)"],
  ["COc1c(Cl)ccc(Cl)c1C(=O)O", "false (0)"],
  ["C=C1[C@H]2CC[C@@]3(C)[C@H](c4ccoc4)OC(=O)C[C@]13O[C@H]1C[C@H](O)C(C)(C)[C@H](CC(=O)OC)[C@]12C", "false (0)"],
  ["Cc1nc2ccccn2c(=O)c1CCN1CCC(C(=O)c2ccc(F)cc2)CC1", "false (0)"],
  ["CC(=O)Nc1ccccc1", "false (0)"],
  ["C[C@@H](N)[C@@H](O)c1ccccc1", "false (0)"],
  ["CN(C)CCOC(=O)COc1ccc(Cl)cc1", "false (0)"],
  ["C=C1C2CC[C@@]3(C)[C@H](c4ccoc4)OC(=O)C[C@]13O[C@H]1CC(O)C(C)(C)C(CC(=O)OC)[C@@]21C (some centres undefined)", "false (0)"],
  ["CC(=O)OCC(=O)[C@@]1(O)[C@H](OC(C)=O)CC2C3CCC4=CC(=O)C=C[C@]4(C)[C@@]3(F)[C@@H](O)C[C@@]21C (some centres undefined)", "false (0)"],
  ["CCN(CC)C(C)CN1c2ccccc2Sc2ccccc21 (centres undefined)", "true (1)"],
  ["CN(C)N=Nc1nc[nH]c1C(N)=O", "false (0)"],
  ["Nc1ccncc1", "false (0)"],
  ["C=C1C2=CC(=O)O[C@@H](c3ccoc3)[C@]2(C)CCC1[C@@]1(C)C=CC(=O)C(C)(C)[C@@H]1CC(=O)OC (some centres undefined)", "false (0)"],
  ["NC(=O)c1ncn(C2O[C@H](CO)[C@@H](O)[C@H]2O)c1N (some centres undefined)", "false (0)"],
  ["CN(C)CCOC(=O)C(c1ccccc1)C1(O)CCCC1 (centres undefined)", "false (0)"],
  ["CCCC(CCC)C(=O)O", "false (0)"],
  ["CC(CN(C)C)CN1c2ccccc2CCc2ccccc21 (centres undefined)", "false (0)"],
  ["CNCCCN1c2ccccc2CCc2ccccc21", "false (0)"],
  ["c1ccc2c(c1)CN1CCCC1=N2", "false (0)"],
  ["CC(CN(C)C)CN1c2ccccc2Sc2ccccc21 (centres undefined)", "false (0)"]
]}

###

Form field: normalized growth (one value per entry).
experiment: chemical genetic growth profiling, strain panel (AID 1159580);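 note: tested at 20 µM; growth read once vehicle control cultures reached saturation at 30 °C; 1 = growth at the plate median or of vehicle wells; lower values mean less growth of the strain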; details: S. cerevisiae deletion strains, growth OD, locus YNL020C, strain ARK1, active compounds read low
Out of some 5,500 compounds screened, about 2,000 (36%) were called active. Roughly 18% stayed inconclusive and do not appear here. The list shows a part of the results.
test readout: normalized growth

{"columns": ["compound", "reported"],
 "data": [
  ["COc1ccc(CC2CCC(=NOC(=O)c3c(Cl)cccc3Cl)CC2)cc1 (stereo unspecified)", 0.977],
  ["CSC(=NNc1ccccc1)NC(=O)c1c(Cl)cccc1Cl", 0.88],
  ["Cc1c(S(=O)(=O)c2ccc(Cl)cc2)csc1C(=O)NNc1cccc(Cl)c1", 0.941],
  ["O=C1/C(=C/c2cccs2)COc2ccccc21", 0.839],
  ["O=C(NNc1ccc(Cl)cc1)c1ccc(F)cc1F", 0.765],
  ["O=C(CCn1c(=O)oc2ccccc21)Sc1ccc(C(F)(F)F)cc1", 0.783],
  ["O=C(CCn1c(=O)oc2ccccc21)Sc1ccc(Cl)cc1Cl", 0.383],
  ["COc1cc(CC/C(C)=N/O)ccc1OCc1ccc(Cl)cc1Cl", 0.935],
  ["COc1ccc(CC2CCC(=NOC(=O)c3ccc(C(C)(C)C)cc3)CC2)cc1 (stereo unspecified)", 0.964],
  ["CC1C/C(=N/Nc2ccc(Br)cc2)c2cc(Cl)ccc2S1 (stereo unspecified)", 0.141],
  ["CC1C/C(=N/Nc2ccc(Br)cc2)c2cc(Cl)ccc2S1(=O)=O (stereo unspecified)", 0.837]
]}

###

experiment: chemical genetic growth profiling, strain panel (AID 1159580);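 note: tested at 20 µM; growth read once vehicle control cultures reached saturation at 30 °C; 1 = growth at the plate median or of vehicle wells; lower values mean less growth of the strain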; settings: S. cerevisiae deletion strains, growth OD, locus YJL095W, strain BCK1 (second series), active compounds read low
Out of some 5,500 compounds screened, about 2,000 (36%) were called active. Not shown: some 18% with an inconclusive outcome. The list shows a part of the results.
test readout: normalized growth

{"columns": ["compound", "reported"],
 "data": [
  ["N#C/C(=C\\c1cccc(O)c1)C(=O)O", "0.984 (inactive)"],
  ["COc1ccc(C(=O)N2CCCC2=O)cc1", "0.973 (inactive)"],
  ["O=C(Nc1ccccc1)Nc1ccccc1", "0.991 (inactive)"],
  ["CC1(C)C(O)CC(O)C2(C)C1CC(O)C1(C)C2CCC2(C)C(c3ccoc3)OC(=O)C3OC321 (stereo not given)", "0.983 (inactive)"],
  ["CCCC(CCC)C(=O)O", "1.01 (inactive)"],
  ["C=C1C2CCC3(C)C(c4ccoc4)OC(=O)CC13OC1CC(OC(C)=O)C(C)(C)C(CC(=O)OC)C12C (stereo not given)", "1.02 (inactive)"],
  ["CCN(CCCc1ccccc1)CCCc1ccccc1", "0.981 (inactive)"],
  ["C=C1C(C2(C)C=CC(=O)C(C)(C)C2CC(=O)OC)CC[C@@]2(C)[C@H](c3ccoc3)OC(=O)C3OC132 (stereo not given in full)", "0.979 (inactive)"],
  ["O=[N+]([O-])c1cccc2c(Br)[nH]nc12", "0.977 (inactive)"],
  ["COc1ccc(C(=O)CC(=O)c2ccc(C(C)(C)C)cc2)cc1", "0.967 (inactive)"],
  ["CCCC(C(=O)OCCN(CC)CC)(c1ccccc1)c1ccccc1", "0.994 (inactive)"],
  ["C=C1[C@H]2CC[C@@]3(C)[C@H](c4ccoc4)OC(=O)C[C@]13O[C@H]1C[C@H](O)C(C)(C)[C@H](CC(=O)OC)[C@]12C", "1.02 (inactive)"],
  ["CSc1ccc2c(c1)N(CCC1CCCCN1C)c1ccccc1S2 (stereo not given)", "0.894 (active)"],
  ["CC1=C2[C@H]3OC(=O)[C@@H](C)[C@@H]3CC[C@@]2(C)C=CC1=O", "0.964 (inactive)"],
  ["C=C1C2CC[C@@]3(C)[C@H](c4ccoc4)OC(=O)C[C@]13O[C@H]1CC(O)C(C)(C)C(CC(=O)OC)[C@@]21C (stereo not given in full)", "0.956 (inactive)"],
  ["COc1cc([C@H]2Oc3cc([C@H]4Oc5cc(O)cc(O)c5C(=O)[C@@H]4O)ccc3O[C@@H]2CO)ccc1O", "1.02 (inactive)"],
  ["C=C1C2CC[C@@]3(C)[C@H](c4ccoc4)OC(=O)C[C@]13O[C@H]1CC(=O)C(C)(C)C(CC(=O)OC)[C@@]21C (stereo not given in full)", "0.991 (inactive)"],
  ["O=[N+]([O-])c1cccc2cn[nH]c12", "1 (inactive)"],
  ["CNC(=O)Oc1ccc2c(c1)[C@]1(C)CCN(C)[C@@H]1N2C", "1.03 (inactive)"],
  ["CC(=O)OCC(=O)[C@@]1(O)[C@H](OC(C)=O)CC2C3CCC4=CC(=O)C=C[C@]4(C)[C@@]3(F)[C@@H](O)C[C@@]21C (stereo not given in full)", "0.986 (inactive)"]
]}

###

Form field: normalized growth (one value per entry).
assay: chemical genetic growth profiling, strain panel (AID 1159580);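 note: tested at 20 µM; growth read once vehicle control cultures reached saturation at 30 °C; 1 = growth at the plate median or of vehicle wells; lower values mean less growth of the strain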; conditions: S. cerevisiae deletion strains, growth OD, locus YJL166W, strain qcr8, active compounds read low
Among all 5,500 compounds or so, about 2,000 (36%) were called active. About 18% were inconclusive and are not listed. The list shows a part of the results.
test readout: normalized growth

{"columns": ["compound", "test readout", "reported"],
 "data": [
  ["OC[C@H]1OC([S-])[C@H](O)[C@@H](O)[C@@H]1O.[Au+] (some centres undefined)", "normalized growth", 1.02],
  ["C=C1C2=CC(=O)O[C@@H](c3ccoc3)[C@]2(C)CCC1[C@@]1(C)C=CC(=O)C(C)(C)[C@@H]1CC(=O)OC (some centres undefined)", "normalized growth", 0.996],
  ["NC(=O)c1ncn(C2O[C@H](CO)[C@@H](O)[C@H]2O)c1N (some centres undefined)", "normalized growth", 1.05],
  ["O=c1cc(-c2ccc(O)cc2)oc2cc(O)ccc12", "normalized growth", 0.969],
  ["COC(=O)CCC(C)C1CCC2C3CC[C@@H]4C[C@H](O)CC[C@]4(C)C3C[C@H](O)[C@]12C (some centres undefined)", "normalized growth", 0.892],
  ["COc1cc(C)c(C(=O)Oc2cc(C)c(C(=O)O)c(O)c2C)c(OC)c1C", "normalized growth", 0.953],
  ["CC(CCC(=O)O)[C@H]1CCC2C3CC[C@@H]4C[C@H](O)CC[C@]4(C)C3C[C@H](O)[C@@]21C (some centres undefined)", "normalized growth", 1.02],
  ["O=c1cc(-c2ccccc2)oc2c(O)c(O)ccc12", "normalized growth", 0.994],
  ["C=C1C(C2(C)C=CC(=O)C(C)(C)C2CC(=O)OC)CC[C@@]2(C)[C@H](c3ccoc3)OC(=O)C3OC132 (some centres undefined)", "normalized growth", 1],
  ["CC(CCC(=O)O)[C@H]1CCC2C3CC[C@@H]4C[C@H](O)CC[C@]4(C)C3CC[C@@]21C (some centres undefined)", "normalized growth", 0.83],
  ["C=C1C2CC[C@@]3(C)[C@H](c4ccoc4)OC(=O)C[C@]13O[C@H]1CC(=O)C(C)(C)C(CC(=O)OC)[C@@]21C (some centres undefined)", "normalized growth", 0.977],
  ["Nc1cc(-c2ccncc2)c[nH]c1=O", "normalized growth", 0.539],
  ["CCN(CCCc1ccccc1)CCCc1ccccc1", "normalized growth", 0.93],
  ["COc1ccc(C(=O)CC(=O)c2ccc(C(C)(C)C)cc2)cc1", "normalized growth", 0.976],
  ["COC(=O)CCC(C)[C@H]1CCC2C3C(C[C@H](O)[C@@]21C)[C@@]1(C)CC[C@@H](O)C[C@H]1C[C@H]3O (some centres undefined)", "normalized growth", 1.02],
  ["Cc1ncc([N+](=O)[O-])n1CC(C)O (centres undefined)", "normalized growth", 0.996],
  ["N[C@@H]1[C@@H](O)[C@H](O)[C@@H](CO)O[C@H]1O", "normalized growth", 1.03],
  ["Nc1cc(C(Cl)=C(Cl)Cl)c(S(N)(=O)=O)cc1S(N)(=O)=O", "normalized growth", 1.06],
  ["C[C@@H]1O[C@@H](O[C@H]2C[C@@H](O)[C@]3(CO)C4C(CC[C@]3(O)C2)[C@@]2(O)CC[C@H](C3=CC(=O)OC3)[C@@]2(C)C[C@H]4O)[C@H](O)[C@H](O)[C@H]1O (some centres undefined)", "normalized growth", 1.01],
  ["C=C1[C@H]2CC[C@@]3(C)[C@H](c4ccoc4)OC(=O)C[C@]13O[C@H]1C[C@H](O)C(C)(C)[C@H](CC(=O)OC)[C@]12C", "normalized growth", 1.03],
  ["Cc1cc(O)c(C=O)c2c1C(=O)Oc1c(COC(=O)/C=C/C(=O)O)c(O)c(C(=O)O)c(C)c1O2", "normalized growth", 0.947],
  ["COc1cc([C@@H]2c3cc4c(cc3[C@H](OC(C)=O)[C@H]3COC(=O)[C@@H]23)OCO4)cc(OC)c1OC", "normalized growth", 1.02],
  ["O=C(O)CCC(=O)Nc1ccc(S(=O)(=O)Nc2nccs2)cc1", "normalized growth", 1],
  ["CN(C)N=Nc1nc[nH]c1C(N)=O", "normalized growth", 0.936],
  ["S=P(N1CC1)(N1CC1)N1CC1", "normalized growth", 1.01],
  ["Cc1cc(C)cc(OCC2CNC(=O)O2)c1 (centres undefined)", "normalized growth", 0.981],
  ["CN(C(=O)CN(CCO)CC(=O)N(C)C(C)(C)Cc1ccccc1)C(C)(C)Cc1ccccc1", "normalized growth", 1.01],
  ["CC(C)CCCC(C)C1CCC2C3CC[C@H]4CCCC[C@]4(C)C3CC[C@]12C (some centres undefined)", "normalized growth", 1.02],
  ["C/C=C/C(=O)N(CC)c1ccccc1C", "normalized growth", 1.02],
  ["O=C(O)c1ccccc1C(=O)Nc1ccc(S(=O)(=O)Nc2nccs2)cc1", "normalized growth", 0.985],
  ["CCN(CC)CCOC(=O)C(c1ccccc1)c1ccccc1", "normalized growth", 0.958],
  ["O=c1cc(-c2cc(O)c(O)c(O)c2)oc2cc(O)cc(O)c12", "normalized growth", 0.957],
  ["Nc1ccncc1", "normalized growth", 0.989],
  ["COc1ccc(C(=O)N2CCCC2=O)cc1", "normalized growth", 0.945],
  ["O=c1cc(-c2ccc(O)cc2)oc2cc(O)cc(O)c12", "normalized growth", 1.01],
  ["COc1c2ccccc2nc2occc12", "normalized growth", 0.901],
  ["NS(=O)(=O)c1cc2c(cc1Cl)NC(C1CC3C=CC1C3)NS2(=O)=O (centres undefined)", "normalized growth", 0.997],
  ["CN[C@@H]1[C@H](OC2[C@H](O[C@H]3[C@H](O)[C@@H](O)[C@H](N=C(N)N)[C@@H](O)[C@@H]3N=C(N)N)O[C@@H](C)[C@]2(O)C=O)O[C@@H](CO)[C@H](O)[C@H]1O (some centres undefined)", "normalized growth", 1.02],
  ["CC(CCC(=O)O)[C@H]1CCC2C3C(C[C@H](O)[C@@]21C)[C@@]1(C)CC[C@@H](O)C[C@H]1C[C@H]3O (some centres undefined)", "normalized growth", 1.03]
]}

Hey, just so you know, these numbers are from PubChem BioAssay AID1159580.
